- Tested on: SF-268
- MEASUREMENT_DESCRIPTION: NCI tumour cell line growth inhibition, 48 h
Activity calls are given as the source filed them. Rule as the data show it: active = GI50 up to about 1.1 µM and inactive = higher.
PARAMETER: GI50

# example entries with known answers
| COMPOUND | RECORDED_VALUE |
| --- | --- |
| Nc1ccc(S(=O)(=O)c2ccc(NC(=O)c3cccnc3)cc2)cc1 | > 100 µM (inactive) |
| NC1=NS(=O)(=O)Nc2nc(-c3ccc([N+](=O)[O-])o3)[nH]c21 | 20 µM (inactive) |
| C=C1C(=O)OC2/C=C(\C)CC(O)/C=C(/CO)CC(OC(=O)/C(C)=C/C)C12 (stereo unspecified) | 46.8 µM (inactive) |
| O=[N+]([O-])c1ccc2nnnn2c1 | 70.6 µM (inactive) |
| Oc1cc(-n2cccn2)c(O)cc1-n1cccn1 | 55.7 µM (inactive) |
| Cc1cccc(/N=N/c2ccc(O)c(CN(C)C)c2)c1 | 26.2 µM (inactive) |

Lookup result for O=C(O)CN1CCNCCN(CC(=O)O)CC1 ; measured GI50: 89.1 µM (inactive)

Lookup result for C=C1[C@@H](C)[C@H]2[C@H](Cc3ccccc3)NC(=O)[C@]23OC(=O)/C=C/[C@H](O)CCC[C@@H](C)C/C=C/[C@H]3[C@@H]1O ; measured GI50: 2.55 µM (inactive)

Lookup result for [N-]=[N+]=Nc1c(N2CCOCC2)c(Cl)nc2ccccc12 ; measured GI50: 37.5 µM (inactive)

====

- Tested on: K562
- MEASUREMENT_DESCRIPTION: NCI tumour cell line growth inhibition, 48 h
Calls of active or inactive are those of the source. Rule as the data show it: active = GI50 up to about 1.1 µM and inactive = higher.
PARAMETER: GI50

# example entries with known answers
| MOLECULE | ASSAY_SYSTEM | RECORDED_VALUE |
| --- | --- | --- |
| Cc1nc2ccccc2c(=O)n1-c1n[nH]c2ccccc12 | K562 | > 100 µM (inactive) |
| O=c1[nH]cnc2[nH]nnc12 | K562 | 0.593 µM (active) |
| COc1cc(C2c3cc4c(cc3OC(NCc3ccccc3)C2C)OCO4)cc(OC)c1OC (stereo not given) | K562 | 0.305 µM (active) |

Lookup result for CC1(C)C2CCC(N)(C2)C1N (stereo not given) ; measured GI50: > 100 µM (inactive)

Lookup result for COc1cc2c[n+](C)c3c4cc(OC)c(OC)cc4c(OC)cc3c2cc1OC ; measured GI50: 4.03 µM (inactive)

Lookup result for Cc1ccc(N(Cc2ccccc2)Cc2ccccc2)cc1 ; measured GI50: 55.8 µM (inactive)

====

Reported GI50 values are given for each entry in this list.
- System: NCI/ADR-RES
- MEASUREMENT_DESCRIPTION: NCI tumour cell line growth inhibition, 48 h
The source made the active and inactive calls. Rule as the data show it: active = GI50 up to about 1.1 µM and inactive = higher.

# example entries with known answers
| INPUT_SMILES | PARAMETER | RECORDED_VALUE |
| --- | --- | --- |
| c1ccc(-c2ccc(/N=N/N3CCCC3)cc2)cc1 | GI50 | > 100 µM (inactive) |
| COc1cc2nc(-c3cccs3)[nH]c(=O)c2cc1OC | GI50 | > 100 µM (inactive) |
| C/C(=N\Nc1nc2cc(C)ccc2s1)c1ccccn1 | GI50 | 0.261 µM (active) |

Okay, next one:
Lookup result for O=C(CN1CCCCC1)Nc1ccc2sc3ccccc3c(=O)c2n1 ; measured GI50: 7.82 µM (inactive)
